Answer each item with its documented recombinant UMI read abundance (log10).
- Method description: recombinant UMI read abundance after kanamycin selection (control-corrected) (log10(CPM+1)); higher = more efficient recombination; extreme values may be limits of the assay; sequences stand for … in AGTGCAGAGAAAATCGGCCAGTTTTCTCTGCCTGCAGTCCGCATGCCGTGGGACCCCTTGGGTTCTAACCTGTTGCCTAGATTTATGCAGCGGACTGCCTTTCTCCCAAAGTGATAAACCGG…AGGTTGGTTTCACT; site = the 11-nt donor;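 note: IS621 bridge recombinase in Escherichia coli cells against a fixed T5 target plasmid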
Keep the answer to the number alone.

Task: Item CAAGCCCCATGGACCGGTTTTCCCGGTAATCCGTATTTGCT (site CAAGCCCCTAG) has what recorded recombinant UMI read abundance (log10)?
Output: 2.06

Task: Look at this sequence and give its reported recombinant UMI read abundance (log10). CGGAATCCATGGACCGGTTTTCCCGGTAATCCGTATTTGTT (site TGGAATCCTAC)
Output: 0

Task: What value of recombinant UMI read abundance (log10) has been reported for the following sequence? TGATAGACATGGACCGGTTTTCCCGGTAATCCGTATTTGCC (site AGATAGACTGG)
Output: 1.96

Task: Given the entry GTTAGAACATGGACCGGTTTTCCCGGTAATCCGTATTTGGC (site GTTAGGACTGC) , report its measured recombinant UMI read abundance (log10).
Output: 0.0154
